system: T1, muNav1.7α (murine Nav1.7α) (murine, UniProt Q62205 1-1984)
T1 construct: HEK Jmp-In cells
assay.info: binding FACS; minus = lower activity than reference
Parameter EC50 fold change compared to reference: see the listing below.

# binder, unit.string, EC50 fold change compared to reference
records = [
    ("F010301871 (VHH, also called F0103464B09(L11V, T24A, S68T, T79Y, R81Q, S82aN, N82bS, K83R, G88A, V89L); T24A) VHH: EVQLVESGGGVVQPGGSLRLSCAATSRAFIRDVFTGWYRRVPGKERELVARIYNGGNTNYADFAKGRFTISRDNAKKMVYLQMNSLRPEDTALYYCLFSGTINTGREYRSGDYWGQGTLVTVSS", "fold", -2),
    ("F010301873 (VHH, also called F0103464B09(L11V, R39Q, S68T, T79Y, R81Q, S82aN, N82bS, K83R, G88A, V89L); R39Q) VHH: EVQLVESGGGVVQPGGSLRLSCATTSRAFIRDVFTGWYRQVPGKERELVARIYNGGNTNYADFAKGRFTISRDNAKKMVYLQMNSLRPEDTALYYCLFSGTINTGREYRSGDYWGQGTLVTVSS", "fold", -4),
    ("F010301872 (VHH, also called F0103464B09(L11V, T25S, S68T, T79Y, R81Q, S82aN, N82bS, K83R, G88A, V89L); T25S) VHH: EVQLVESGGGVVQPGGSLRLSCATSSRAFIRDVFTGWYRRVPGKERELVARIYNGGNTNYADFAKGRFTISRDNAKKMVYLQMNSLRPEDTALYYCLFSGTINTGREYRSGDYWGQGTLVTVSS", "fold", -2),
    ("F010301877 (VHH, also called F0103464B09(L11V, S68T, K76N, T79Y, R81Q, S82aN, N82bS, K83R, G88A, V89L); K76N) VHH: EVQLVESGGGVVQPGGSLRLSCATTSRAFIRDVFTGWYRRVPGKERELVARIYNGGNTNYADFAKGRFTISRDNAKNMVYLQMNSLRPEDTALYYCLFSGTINTGREYRSGDYWGQGTLVTVSS", "fold", -4),
    ("F010301876 (VHH, also called F0103464B09(L11V, A63V, S68T, T79Y, R81Q, S82aN, N82bS, K83R, G88A, V89L); A63V) VHH: EVQLVESGGGVVQPGGSLRLSCATTSRAFIRDVFTGWYRRVPGKERELVARIYNGGNTNYADFVKGRFTISRDNAKKMVYLQMNSLRPEDTALYYCLFSGTINTGREYRSGDYWGQGTLVTVSS", "fold", -2),
]
